biological target: Hexokinase HKDC1 (Homo sapiens) (UniProt Q2TB90); test: HKDC1 hexokinase inhibitors, confirmation, biochemical, single concentration (AID 504710); conditions: recombinant HKDC1, G6PDH/diaphorase/resazurin fluorescence; at 20 µM
Sequence (Q2TB90 whole entry, looked up): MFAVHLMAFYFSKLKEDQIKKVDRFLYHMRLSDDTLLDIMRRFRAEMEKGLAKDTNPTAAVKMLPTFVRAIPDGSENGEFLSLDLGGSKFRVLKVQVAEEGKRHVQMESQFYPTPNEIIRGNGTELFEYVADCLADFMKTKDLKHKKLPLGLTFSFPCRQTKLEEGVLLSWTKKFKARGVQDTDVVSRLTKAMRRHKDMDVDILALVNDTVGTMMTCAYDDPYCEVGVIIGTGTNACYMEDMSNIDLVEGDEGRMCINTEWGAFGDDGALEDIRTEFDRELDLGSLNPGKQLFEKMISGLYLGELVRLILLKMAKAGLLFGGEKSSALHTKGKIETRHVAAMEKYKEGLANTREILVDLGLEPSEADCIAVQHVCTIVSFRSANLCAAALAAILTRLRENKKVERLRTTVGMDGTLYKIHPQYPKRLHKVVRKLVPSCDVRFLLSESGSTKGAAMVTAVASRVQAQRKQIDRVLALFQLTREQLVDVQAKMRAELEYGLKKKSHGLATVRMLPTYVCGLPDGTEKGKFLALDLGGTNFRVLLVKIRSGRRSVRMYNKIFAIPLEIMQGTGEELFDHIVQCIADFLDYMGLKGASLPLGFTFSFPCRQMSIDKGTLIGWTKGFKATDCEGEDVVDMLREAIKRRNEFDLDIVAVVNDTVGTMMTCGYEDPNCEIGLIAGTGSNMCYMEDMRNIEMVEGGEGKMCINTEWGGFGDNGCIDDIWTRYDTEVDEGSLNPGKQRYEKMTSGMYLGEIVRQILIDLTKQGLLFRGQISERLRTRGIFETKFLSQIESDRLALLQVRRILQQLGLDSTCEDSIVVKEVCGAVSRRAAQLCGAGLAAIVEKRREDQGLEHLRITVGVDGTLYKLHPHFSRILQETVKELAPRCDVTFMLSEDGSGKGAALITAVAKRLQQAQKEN
Active and inactive are the calls of the source.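 Rule for the calls: active = inhibition reaching about 16% in any single replicate (limit read from the data); inactive = the rest.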
Your reply should match one of these outcome classes. active, inactive

O=C(O)c1cc(O)c2c(c1)[C@@H]([C@H]1c3cc(C(=O)O)cc(O)c3C(=O)c3c(O[C@@H]4O[C@H](CO)[C@@H](O)[C@H](O)[C@H]4O)cccc31)c1cccc(O[C@@H]3O[C@H](CO)[C@@H](O)[C@H](O)[C@H]3O)c1C2=O :: active

Please state the recorded outcome for this compound: "COc1ccc(NC(=O)CSc2ccc(-c3ccco3)nn2)c(OC)c1"
active

Please state the recorded outcome for this compound: C=CCn1c(SCC(=O)Nc2sc3c(c2C#N)CCC(C)C3)nc2cc(C(=O)O)ccc2c1=O (stereo unspecified)
active

Please state the recorded outcome for this compound: "Oc1ccc(O)c(Cc2nc3ccccc3[nH]2)c1"
active

Please state the recorded outcome for this compound: "COC(=O)c1cc(C)nc2c1C(=O)C(=O)C=C2N1CCOCC1"
active

Please state the recorded outcome for this compound: "Cc1ccc(-n2c3nc(=O)[nH]c(=O)c-3cc3cc([N+](=O)[O-])ccc32)cc1"
active

Numbers sourced from PubChem BioAssay AID504710.
